test: Toxicity liver stage against HepG2, at 10uM; type: cell-based; set-up: test concentration 10 uM, cell line HepG2-A16-CD81EGFP; conditions: human, HepG2-A16-CD81EGFP cells; read-out: INHIBITION
Property: cytotoxicity at 10 µM; scope: individual compounds
measure: cytotoxicity at 10 µM (%)

{"columns": ["compound", "measure", "quantitative result"],
 "data": [
  ["O=C(NC1CCC1)[C@@H]1CCO[C@@H]2CCN(CCc3ccccc3)C[C@H]21", "cytotoxicity at 10 µM", -7.24],
  ["CC(C)OCCCN(CC(=O)N1CCNCC1)C(=O)c1cccc(Cl)c1", "cytotoxicity at 10 µM", 10.3],
  ["Cc1cc(NC(=O)N2CCN(C)CC2C)n(C(C)(C)C)n1 (stereo not drawn)", "cytotoxicity at 10 µM", 6.3],
  ["CNS(=O)(=O)c1cccc(C(C)NCc2nccn2C(C)C)c1 (stereo not drawn)", "cytotoxicity at 10 µM", -12.6],
  ["CNc1ccnc(NCCSc2nccn2C)n1", "cytotoxicity at 10 µM", -42.6],
  ["Cn1nc(Br)c2c(=O)n(CCc3ccccc3)cnc21", "cytotoxicity at 10 µM", -1.4],
  ["COc1ccc(C(=O)NC2CC2)c(OC2CCN(C(C)CO)CC2)c1 (stereo not drawn)", "cytotoxicity at 10 µM", -7.71],
  ["Cn1cc(C2CCCN2C(=O)Cn2ccc3ccc(Cl)cc32)cn1 (stereo not drawn)", "cytotoxicity at 10 µM", 8.81],
  ["CN(C)C(=O)[C@@H]1CCO[C@@H]2CCN(CCOCc3ccccc3)C[C@H]21", "cytotoxicity at 10 µM", -0.902],
  ["O=C(C1CCC2(CCN(Cc3cccnc3)CC2)CO1)N1CCCC1 (stereo not drawn)", "cytotoxicity at 10 µM", -108],
  ["Cc1noc(C)c1C(C)C(=O)N1CCCN(C)c2ccc(Cl)cc21 (stereo not drawn)", "cytotoxicity at 10 µM", 3.89],
  ["CCN(C(=O)CN(Cc1cccc(O)c1)C1CCC(O)CC1)C1CC1 (stereo not drawn)", "cytotoxicity at 10 µM", 1.31],
  ["CCc1nc(CN(C)C2CCN(Cc3ccc(C#N)cc3F)C2)no1 (stereo not drawn)", "cytotoxicity at 10 µM", -7.12]
]}
